test system: M19-MEL melanoma; assay: NCI tumour cell line growth inhibition, 48 h
property: TGI

The cases that follow already have their TGI on record.
O=C1CC2=CCCC2O1 (stereo not drawn)    > 100 µM
C=CCN=C1NC(=O)C(CC(=O)Nc2ccc([N+](=O)[O-])cc2[N+](=O)[O-])S1 (stereo not drawn)    > 100 µM
CSc1nc2c(ncn2C2OC(CO)C(O)C(O)C2O)c(=O)n1C (stereo not drawn)    > 100 µM
CCCCCCCCCCCCNC(=S)OCCCC    > 100 µM
CC[P+](C)(C)CC    > 100 µM
N/N=C1\C(=O)N(c2ccc(Cl)c(Cl)c2)C(=O)C1C(=O)Nc1ccc(Cl)c(Cl)c1 (stereo not drawn)    > 100 µM

Exam item: Request body: readout TGI, system M19-MEL melanoma, query Cc1ccc(C)c(NC(=O)C(=O)C(C2C(C)CC(=O)C2CC(=O)O)[N+](=O)[O-])c1 (stereo not drawn) . Return the value.
Marked response: > 100 µM

Exam item: Request body: readout TGI, system M19-MEL melanoma, query CC(=O)CC(=O)Nc1ccc(OS(N)(=O)=O)cc1 . Return the value.
Marked response: > 100 µM

Exam item: Request body: readout TGI, system M19-MEL melanoma, query CC[n+]1c(/C=C/c2cc(C(=O)OC)n3c2sc2ccccc23)sc2ccccc21 . Return the value.
Marked response: 35.5 µM

Exam item: Request body: readout TGI, system M19-MEL melanoma, query COC(=O)C(C(=O)C(=O)Nc1nc2ccc(OC)cc2s1)c1cnc2ccccc2n1 (stereo not drawn) . Return the value.
Marked response: > 100 µM

Exam item: Request body: readout TGI, system M19-MEL melanoma, query COc1cc2c(c(OC)c1OC)[C@@H]1CCCCC[C@@H]1CCC2=O . Return the value.
Marked response: > 100 µM

Exam item: Request body: readout TGI, system M19-MEL melanoma, query O=C(OCc1ccccc1)N1N=NC2C3CC(OCc4ccccc4)(OCc4ccccc4)C(O3)C21 (stereo not drawn) . Return the value.
Marked response: 77.6 µM

Exam item: Request body: readout TGI, system M19-MEL melanoma, query CCN(CC)CCNc1ccc2nc(C)n3c4ccc(OC)cc4c(=O)c1c23 . Return the value.
Marked response: 19.5 µM

----------
system: SK-MEL-28 melanoma; assay: NCI tumour cell line growth inhibition, 48 h
Each item that follows carries a reported TGI.

The cases that follow already have their TGI on record.
CCCCCCCCCCCC(=O)OCC(O)CO (stereo unspecified)    > 100 µM
COc1cc2c(cc1OCCCN1CCN(CCCOc3cc4c(cc3OC)C(=O)N3C[C@H](F)C[C@H]3C=N4)CC1)N=C[C@@H]1C[C@@H](F)CN1C2=O    0.343 µM
CC1=CC2=C(C=O)C(=O)[C@](C)(O)[C@@H](O)C2=CO1    > 78.1 µM
O=C(O)CC(CC(=O)O)n1cccc1    > 100 µM
COc1ccc(C(=O)c2no[n+]([O-])c2C(=O)c2ccc(OC)cc2)cc1    22.1 µM

Below: the item to evaluate.
Exam item: State the recorded TGI for this entry: Cc1ccnn1CCc1ccc(Cl)cc1Cl
Marked response: > 100 µM

----------
tested on: SR leukemia; assay: NCI tumour cell line growth inhibition, 48 h; in the data active means GI50 below about 0.43 µM; inactive means the rest
Allowed answers: active, inactive

O=[N+]([O-])c1cc2c(ccc3ccccc32)o1    active

Exam item: Check the results log: what was the call for O=NN(CC(=O)NNc1ccccc1)CC(=O)NNc1ccccc1 ?
Marked response: inactive

Exam item: Check the results log: what was the call for COc1cc2c(cc1OCCCN1CCN(CCCOc3cc4c(cc3OC)C(=O)N3C[C@H](F)C[C@H]3C=N4)CC1)N=C[C@@H]1C[C@@H](F)CN1C2=O ?
Marked response: active

----------
system: K-562 leukemia; experiment: NCI tumour cell line growth inhibition, 48 h
Each item that follows carries a reported TGI.

The cases that follow already have their TGI on record.
CC(=O)OC1CCC2(C)C(=CCC3C2CCC2(C)C3CC3OC4(CCC(C)CN4)C(C)C32)C1 (stereo not drawn)    > 100 µM
NC(=S)N/N=C1\CCc2ccccc2C1    > 100 µM

Below: the item to evaluate.
Exam item: State the recorded TGI for this entry: C[C@H]1CCC/C=C/[C@@H]2C[C@H](O)C[C@H]2[C@H](O)C(O)C(O)C(=O)O1 (stereo partly drawn)
Marked response: > 23.6 µM

----------
tested on: HCT-15 colon; experiment: NCI tumour cell line growth inhibition, 48 h
Each item that follows carries a reported GI50.

The cases that follow already have their GI50 on record.
COc1cc(/C=C/C(=O)c2cccc(-n3cc(-c4ccccc4)[nH]c3=O)c2)ccc1O    2.9 µM
CCOC(=O)c1c(C)n(Cc2ccc(Cl)cc2Cl)c2c1cc(O)c1[nH]c(Cc3ccccc3)nc12    3.94 µM
O=C(/C=C/c1cccc(Cl)c1)c1ccccc1    4.22 µM
O=C1CC[C@@H]2[C@H]3CCC(=O)c4c3c(c3cccc(O)c3c4O)O[C@@]23C(=O)c2cccc(O)c2C(O)=C13    > 100 µM

Below: the item to evaluate.
Exam item: State the recorded GI50 for this entry: Nc1ncnc2occ(-c3ccc(NC(=O)Nc4cccc(C(F)(F)F)c4)cc3)c12
Marked response: 4.24 µM

----------
system: SF-539 CNS; assay: NCI tumour cell line growth inhibition, 48 h
Each item that follows carries a reported TGI.

Exam item: Request body: readout TGI, system SF-539 CNS, query CCc1cn(C2CC(CO)C(CO)S2)c(=O)[nH]c1=O (stereo not drawn) . Return the value.
Marked response: > 100 µM

----------
system: MALME-3M melanoma; test: NCI tumour cell line growth inhibition, 48 h
Each item that follows carries a reported TGI.

COc1ccc(/C=N/n2c(Cc3ccccc3)n[nH]c2=O)c(OC)c1    > 100 µM
ON[C@@H]1C=C[C@H](n2cnc3c(NC4CC4)ncnc32)C1    > 100 µM

Below: the item to evaluate.
Exam item: State the recorded TGI for this entry: Nc1ncnc2c1ncn2C1OC(F)(COS(N)(=O)=O)C(O)C1O (stereo not drawn)
Marked response: > 100 µM

----------
Each item that follows carries a reported TGI.
test system: LOX IMVI melanoma; experiment: NCI tumour cell line growth inhibition, 48 h
Where a SMILES comes first, the peptide text is derived from it. [ ]: non-standard residue; d: D form. The star is where a group is joined. Phe(4-NO2) = N[CH](Cc1ccc([N+](=O)[O-])cc1)C(=O)O; Cbz = O=C(OCc1ccccc1)*

CCCCCCCCCCCC(=O)OCC(O)CO (stereo not given)    > 100 µM
O=C(c1ccsc1)c1nccc2c1cnc1ccccc12    > 100 µM
COc1ccc(C)cc1-c1ccc(-c2cc(C)ccc2OC)o1    > 100 µM
CCOC(=O)CCC(NC(=O)OCc1ccccc1)C(=O)NC(CCC(=O)OCC)C(=O)NC(CCC(=O)OCC)C(=O)NC(CCC(=O)OCC)C(=O)NC(CCC(=O)OCC)C(=O)NC(Cc1ccc([N+](=O)[O-])cc1)C(=O)NC(CCC(=O)OCC)C(=O)NC(CCC(=O)OCC)C(=O)NC(CCC(=O)OCC)C(=O)NC(CCC(=O)OCC)C(=O)NC(CCC(=O)OCC)C(=O)OCC (stereo not given) (Cbz-E(OEt)E(OEt)E(OEt)E(OEt)E(OEt)[Phe(4-NO2)]E(OEt)E(OEt)E(OEt)E(OEt)E(OEt)-OEt; configuration not given here)    > 50 µM
C=Cc1c(-c2ccccc2)cnc2[nH]c3ccccc3c12    > 50 µM

Exam item: State the recorded TGI for this entry: O=c1oc2cc(O)ccc2cc1-c1nc2ccccc2o1
Marked response: > 100 µM

Exam item: State the recorded TGI for this entry: Cc1nc2sc(C(=O)Nc3cccc4c3OCCO4)c(N)c2cc1C(C)O (stereo not given)
Marked response: > 100 µM

Exam item: State the recorded TGI for this entry: O=S(=O)(c1ccccc1)C1(C2(S(=O)(=O)c3ccccc3)CCN=N2)CCN=N1 (stereo not given)
Marked response: > 100 µM

Exam item: State the recorded TGI for this entry: Clc1nc(NC23CC4CC(CC(C4)C2)C3)nc(NC23CC4CC(CC(C4)C2)C3)n1
Marked response: > 100 µM

Exam item: State the recorded TGI for this entry: CCc1n[nH]c(=O)n1N
Marked response: > 100 µM

Exam item: State the recorded TGI for this entry: CCCCCCCCC#CCCCCCCC(F)C(=O)O (stereo not given)
Marked response: > 100 µM

----------
tested on: SK-MEL-2 melanoma; experiment: NCI tumour cell line growth inhibition, 48 h
property: TGI

The cases that follow already have their TGI on record.
CC[P+](C)(C)CC    > 100 µM
Nc1ccc(C(=O)NN2C(=O)C(Cl)C2c2ccc(O)cc2)cc1 (stereo not drawn)    31.4 µM
C(#Cc1ccccc1C#Cc1cnccn1)c1cnccn1    > 61.1 µM

Exam item: State the recorded TGI for this entry: COc1cccc(-c2nc(N)c(C#N)c3c2CCS(=O)(=O)c2ccc(C)cc2-3)c1
Marked response: > 100 µM

Exam item: State the recorded TGI for this entry: c1ccc2c(c1)n1c(N3CCCC3)[n+]3ccccc3c1c1c3cccc[n+]3c(N3CCCC3)n21
Marked response: > 100 µM

Exam item: State the recorded TGI for this entry: COc1cccc(/C=C2\COc3ccc(O)c(O)c3C2=O)c1OC
Marked response: 6.34 µM

Exam item: State the recorded TGI for this entry: COc1ccc(-c2c(C#N)c(N)nc(Sc3ccccc3N)c2C#N)cc1
Marked response: 39.7 µM

Exam item: State the recorded TGI for this entry: CC12CC(Br)(Br)C(=O)C3C1CCCC32
Marked response: 30.4 µM

Exam item: State the recorded TGI for this entry: O=C(CC(=O)n1nc(-c2ccccc2)c(N=Nc2ccc([N+](=O)[O-])cc2)c1-c1ccccc1)Nc1ccc(Cl)cc1
Marked response: > 100 µM

Exam item: State the recorded TGI for this entry: O=C(O)C(Cc1ccc(O)cc1)N=Cc1nc(-c2ccccc2)oc1O (stereo not drawn)
Marked response: > 100 µM

Exam item: State the recorded TGI for this entry: COc1cc2c(cc1OCCCN1CCOCC1)N=C[C@@H]1CCCN1C2=O
Marked response: > 100 µM

Exam item: State the recorded TGI for this entry: CCN(CC)CCNc1ccc2nc(C)n3c4ccc(OC)cc4c(=O)c1c23
Marked response: 28 µM

Exam item: State the recorded TGI for this entry: O=C1NCC2(CCN(CC3COc4ccccc4O3)CC2)N1c1ccccc1 (stereo not drawn)
Marked response: > 100 µM
